# targetOrTestSystem: Histamine H3 receptor (Homo sapiens)
pKi: −log10 of the molar value.
# cutoff 6 applies to pKi; >= gives class 1, < gives class 0

In plain terms: is recorded pKi at least 6 for `CCOC(=O)C1=C(C)NC(C)=C(C(=O)OCC)C1c1ccc(OCCCN2CCCC2)cc1` ?
class 1

In plain terms: is recorded pKi at least 6 for `CCOC(=O)C1=C(C)NC(C)=C(C(=O)OCC)C1c1ccc(OCCCCN2CCCC2)cc1` ?
class 1

In plain terms: is recorded pKi at least 6 for `CCOC(=O)C1=C(C)NC(C)=C(C(=O)OCC)C1c1ccc(OCCCN2CCCCC2)c(OCC)c1` ?
class 0

In plain terms: is recorded pKi at least 6 for `CCOC(=O)C1=C(C)NC(C)=C(C(=O)OCC)C1c1ccc(OCCCCCN2CCCC2)cc1` ?
class 1

In plain terms: is recorded pKi at least 6 for `CCOC(=O)C1=C(C)NC(C)=C(C(=O)OCC)C1c1ccc(OCCCCCN2CCCCC2)cc1` ?
class 1

In plain terms: is recorded pKi at least 6 for `CCOC(=O)C1=C(C)NC(C)=C(C(=O)OCC)C1c1ccc(OCCCN2CCCCC2)cc1` ?
class 1

---

# targetOrTestSystem: Voltage-gated L-type calcium channel (Homo sapiens, UniProt Q13936+Q13698+Q01668+O60840)
# testName: Inhibition of voltage-dependent L-type calcium channel in 70 mM K+-induced human SH-SY5Y cells assessed as blocking of depolarization-induced Ca2+ uptake by Fluo-4/AM dye based fluorescence microplate reader assay
# Format: cell-based
Hi! Just check whether IC50 is below 3000 nM. Below gives Met, equal or above gives Not met.

Does the reported IC50 of `CCOC(=O)C1=C(C)NC(C)=C(C(=O)OCC)C1c1ccc(OCCN2CCCCC2)c(Br)c1` stay below 3000 nM?
Met

Does the reported IC50 of `CCOC(=O)C1=C(C)NC(C)=C(C(=O)OCC)C1c1ccc(OCCN2CCCCC2)c(Cl)c1` stay below 3000 nM?
Met

Does the reported IC50 of `CCOC(=O)C1=C(C)NC(C)=C(C(=O)OCC)C1c1ccc(OCCN2CCCCCC2)c(Br)c1` stay below 3000 nM?
Met

Does the reported IC50 of `CCOC(=O)C1=C(C)NC(C)=C(C(=O)OCC)C1c1ccc(OCCN2CCCCCC2)c(Cl)c1` stay below 3000 nM?
Not met

Does the reported IC50 of `CCOC(=O)C1=C(C)NC(C)=C(C(=O)OCC)C1c1ccc(OCCN2CCCCC2)c(OC)c1` stay below 3000 nM?
Not met

---

# targetOrTestSystem: Histamine H4 receptor (Homo sapiens)
# Sequence (Q9H3N8 whole entry): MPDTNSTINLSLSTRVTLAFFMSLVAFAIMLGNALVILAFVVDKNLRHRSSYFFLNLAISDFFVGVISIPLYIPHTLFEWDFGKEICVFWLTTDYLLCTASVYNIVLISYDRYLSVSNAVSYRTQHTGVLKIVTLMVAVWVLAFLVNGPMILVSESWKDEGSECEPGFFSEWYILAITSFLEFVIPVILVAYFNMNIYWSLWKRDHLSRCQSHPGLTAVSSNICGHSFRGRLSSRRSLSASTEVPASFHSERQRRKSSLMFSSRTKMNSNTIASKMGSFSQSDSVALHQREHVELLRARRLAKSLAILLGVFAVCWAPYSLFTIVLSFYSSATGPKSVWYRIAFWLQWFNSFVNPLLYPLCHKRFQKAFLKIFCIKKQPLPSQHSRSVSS
# testName: Antagonist activity at human H4 receptor expressed in CHO-K1 cells co-expressing G protein alpha16 assessed as inhibition of histamine-induced calcium mobilization incubated for 16 hrs by aequorin-based functional assay
valueKind: IC50 (nM)
Form entry: value (nM) — number only.

So what's the measured IC50 for this one? `CCOC(=O)C1=C(C)NC(C)=C(C(=O)OCC)C1c1ccc(OCCCCCN2CCCCC2)cc1`
1400

---

# targetOrTestSystem: Histamine H3 receptor (Homo sapiens, UniProt Q9Y5N1)
# Sequence (Q9Y5N1 whole entry): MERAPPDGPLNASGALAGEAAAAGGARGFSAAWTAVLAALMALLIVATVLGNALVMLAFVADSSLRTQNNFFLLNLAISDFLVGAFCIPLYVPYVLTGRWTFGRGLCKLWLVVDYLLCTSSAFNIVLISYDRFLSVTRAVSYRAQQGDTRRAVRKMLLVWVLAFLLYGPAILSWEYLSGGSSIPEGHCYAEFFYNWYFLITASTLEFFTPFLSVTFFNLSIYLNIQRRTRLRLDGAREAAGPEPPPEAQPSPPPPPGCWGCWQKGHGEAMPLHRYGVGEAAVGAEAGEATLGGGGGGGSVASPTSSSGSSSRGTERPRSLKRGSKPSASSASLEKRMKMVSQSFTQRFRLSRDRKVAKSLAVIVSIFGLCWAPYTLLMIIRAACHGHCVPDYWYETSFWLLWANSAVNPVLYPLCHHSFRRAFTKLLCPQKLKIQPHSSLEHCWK
# testName: Displacement of [3H]-N-alpha-methylhistamine from human H3 receptor expressed in HEK293 cell membranes incubated for 60 mins by scintillation counting method
# Design: concentration or dose not given beside the values
# cutoff 20% applies to inhibition; >= gives yes, < gives no

In plain terms: is recorded inhibition at least 20% for `CCOC(=O)C1=C(C)NC(C)=C(C(=O)OCC)C1c1ccc(OCCCCN2CCCCC2)cc1` ?
yes

In plain terms: is recorded inhibition at least 20% for `CCOC(=O)C1=C(C)NC(C)=C(C(=O)OCC)C1c1ccc(OCCN2CCCCC2)c(OC)c1` ?
no

In plain terms: is recorded inhibition at least 20% for `CCOC(=O)C1=C(C)NC(C)=C(C(=O)OCC)C1c1ccc(OCCN2CCCCCC2)c(Cl)c1` ?
no

In plain terms: is recorded inhibition at least 20% for `CCOC(=O)C1=C(C)NC(C)=C(C(=O)OCC)C1c1ccc(OCCN2CCCCC2)c(Cl)c1` ?
no

In plain terms: is recorded inhibition at least 20% for `CCOC(=O)C1=C(C)NC(C)=C(C(=O)OCC)C1c1ccc(OCCN2CCCCC2)cc1` ?
no

In plain terms: is recorded inhibition at least 20% for `CCOC(=O)C1=C(C)NC(C)=C(C(=O)OCC)C1c1ccc(OCCN2CCCCC2)c(Br)c1` ?
yes

In plain terms: is recorded inhibition at least 20% for `CCOC(=O)C1=C(C)NC(C)=C(C(=O)OCC)C1c1ccc(OCCCN2CCCC2)c(OCC)c1` ?
no

In plain terms: is recorded inhibition at least 20% for `CCOC(=O)C1=C(C)NC(C)=C(C(=O)OCC)C1c1ccc(OCCCN2CCCC2)c(OC)c1` ?
yes

In plain terms: is recorded inhibition at least 20% for `CCOC(=O)C1=C(C)NC(C)=C(C(=O)OCC)C1c1ccc(OCCN2CCCCCC2)c(Br)c1` ?
no
